target or test system: K-Ras G12D (Homo sapiens, UniProt P01116, G12D)
Sequence (P01116 1-188 isoform P01116-2 G12D): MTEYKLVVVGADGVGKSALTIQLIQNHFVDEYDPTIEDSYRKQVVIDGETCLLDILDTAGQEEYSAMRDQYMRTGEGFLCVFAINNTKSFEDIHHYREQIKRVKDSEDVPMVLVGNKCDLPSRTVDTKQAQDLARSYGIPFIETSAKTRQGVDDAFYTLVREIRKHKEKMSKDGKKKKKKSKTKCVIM
measurement protocol: K-Ras G12D activation by SOS1 (KRAS G12D activation by SOS1cat assay, HTRF)
condition set: mean, SOS1cat mediated loading of GST-KRAS G12D-GDP with fluorescent GTP analogue, read-out: K-Ras G12D activation by SOS1 IC50 - [mol/l] (mean)
measure name: pIC50
To interpret pIC50, take it as minus log10 of a concentration measured in moles per litre.

Worked examples follow.
[[record]]
compound = "C#Cc1c(F)ccc2cc(O)cc(Oc3nc4c(N5C[C@H]6CC(F)[C@@H](C5)N6)nc(OC[C@@]56CCCN5C[C@H](F)C6)nc4s3)c12 (single isomer, unassigned) [Example 26]"
measure_name = "pIC50"
number = 7.58

[[record]]
compound = "C#Cc1c(F)ccc2cc(O)cc(Oc3nc4c(N5C[C@H]6CC[C@@H](C5)N6)nc(OCC56CCCN5CCC6)nc4s3)c12"
measure_name = "pIC50"
number = 8.42

[[record]]
compound = "Oc1cc(Oc2nc3c(N4C[C@H]5CC[C@@H](C4)N5)nc(OCC45CCCN4CCC5)nc3s2)c2c(F)cccc2c1"
measure_name = "pIC50"
number = 6.49


**Query** Report pIC50 for Oc1cc(Nc2nc3c(N4CC5CCC(C4)N5)nc(OCC45CCCN4CCC5)nc3s2)c2ccccc2c1 please.
**Result** 5.47

---

K-Ras-wildtype (Homo sapiens, UniProt P01116) data, read-out IC50
Sequence (P01116 1-188 isoform P01116-2): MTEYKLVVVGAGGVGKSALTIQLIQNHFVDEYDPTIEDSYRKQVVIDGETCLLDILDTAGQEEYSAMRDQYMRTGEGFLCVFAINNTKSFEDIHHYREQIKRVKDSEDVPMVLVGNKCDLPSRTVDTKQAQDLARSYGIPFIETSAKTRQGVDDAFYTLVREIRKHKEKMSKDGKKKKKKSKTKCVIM
Express it in nM; write the number only.

Worked examples follow.
[[record]]
compound = "C#Cc1c(F)ccc2cc(O)cc(Oc3nc4c(N5C[C@H]6CC(F)[C@@H](C5)N6)nc(OC[C@@]56CCCN5C[C@H](F)C6)nc4s3)c12 (single isomer, unassigned) [Example 25]"
target_or_test_system = "K-Ras-wildtype (Homo sapiens, UniProt P01116)"
measure_name = "IC50"
number = 69.9

[[record]]
compound = "C#Cc1c(F)ccc2cc(O)cc(Cc3nc4c(N5CC6CCC(C5)N6)nc(OC[C@@]56CCCN5C[C@H](F)C6)nc4s3)c12"
target_or_test_system = "K-Ras-wildtype (Homo sapiens, UniProt P01116)"
measure_name = "IC50"
number = 99.8


**Query** Query IC50 on K-Ras-wildtype (Homo sapiens, UniProt P01116) for C#Cc1c(F)ccc2cc(O)cc(Oc3nc4c(N5C[C@H]6CC(F)[C@@H](C5)N6)nc(OC[C@@]56CCCN5C[C@H](F)C6)nc4s3)c12 (single isomer, unassigned) [Example 26]
**Result** 25.9

---

K-Ras-wildtype (Homo sapiens, UniProt P01116) data, read-out IC50
Express it in nM; write the number only.

Worked examples follow.
[[record]]
molecule = "C#Cc1c(F)ccc2cc(O)cc(Oc3nc4c(N5CC6COCC(C5)N6)nc(OC[C@@]56CCCN5C[C@H](F)C6)nc4s3)c12 [Example 19]"
number = 10.7

[[record]]
molecule = "C#Cc1c(F)ccc2cc(O)cc(Oc3nc4c(N5CC6COCC(C5)N6)nc(OCC56CCCN5CCC6)nc4s3)c12"
number = 15.3


**Query** Query IC50 on K-Ras-wildtype (Homo sapiens, UniProt P01116) for Cc1cccc2cc(O)cc(Oc3nc4c(N5CC6CCC(C5)N6)nc(OCC56CCCN5CCC6)nc4s3)c12
**Result** 1550

**Query** Query IC50 on K-Ras-wildtype (Homo sapiens, UniProt P01116) for C=Cc1c(F)ccc2cc(O)cc(Oc3nc4c(N5CC6CCC(C5)N6)nc(OC[C@@]56CCCN5C[C@H](F)C6)nc4s3)c12
**Result** 425

**Query** Query IC50 on K-Ras-wildtype (Homo sapiens, UniProt P01116) for C#Cc1c(F)ccc2cc(O)cc(Oc3nc4c(N5C[C@H]6CC(F)[C@@H](C5)N6)nc(OC[C@@]56CCCN5C[C@H](F)C6)nc4s3)c12 (single isomer, unassigned) [Example 27]
**Result** 91.2

**Query** Query IC50 on K-Ras-wildtype (Homo sapiens, UniProt P01116) for C#Cc1c(F)ccc2cc(O)cc(Oc3nc4c(N5CC6CCC(C5)NC6)nc(OC[C@@]56CCCN5C[C@H](F)C6)nc4s3)c12 (single isomer, unassigned) [Example 20]
**Result** 405

**Query** Query IC50 on K-Ras-wildtype (Homo sapiens, UniProt P01116) for C#Cc1c(F)ccc2cc(O)cc(Oc3nc4c(N5C[C@H]6CC(F)[C@@H](C5)N6)nc(OC[C@@]56CCCN5C[C@H](F)C6)nc4s3)c12 (single isomer, unassigned) [Example 24]
**Result** 24.1

// data source = patent US20250154170A1
